Reported Product formation (12h) is given for each of the following compounds.
Target: StITPK1 (Solanum tuberosum)
Sequence (A4H2J0 entry or part of it): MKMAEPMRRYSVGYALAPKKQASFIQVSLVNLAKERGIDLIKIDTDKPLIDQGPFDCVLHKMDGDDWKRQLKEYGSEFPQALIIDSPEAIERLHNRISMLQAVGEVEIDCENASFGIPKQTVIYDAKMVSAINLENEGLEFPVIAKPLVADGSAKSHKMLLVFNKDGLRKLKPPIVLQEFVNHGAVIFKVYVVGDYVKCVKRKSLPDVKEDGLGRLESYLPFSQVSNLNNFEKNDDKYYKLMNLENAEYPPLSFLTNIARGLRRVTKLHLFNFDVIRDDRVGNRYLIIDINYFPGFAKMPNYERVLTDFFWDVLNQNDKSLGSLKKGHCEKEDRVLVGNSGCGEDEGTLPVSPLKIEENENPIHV
Experiment: Kinase assay with ATP, HPLC of products
Assay type: biochemical
Conditions: 1 mM substrate, 12h, 25°C
value-type: Product formation (12h)

compound=O=P(O)(O)O[C@H]1[C@H](OP(=O)(O)O)[C@@H](OP(=O)(O)O)[C@H](OP(=O)(O)O)[C@@H](OP(=O)(O)O)[C@H]1OP(=O)(O)O experimental_result="289 μM/μM protein"
compound="O=P(O)(O)OC1C(OP(=O)(O)O)C(OP(=O)(O)O)C(OP(=O)(O)O)C(OP(=O)(O)O)C1OP(=O)(O)O (stereo not shown) [scyllo-InsP6]" experimental_result="0 μM/μM protein"
compound="O=P(O)(O)CP(=O)(O)OC1C(OP(=O)(O)O)C(OP(=O)(O)O)C(OP(=O)(O)O)C(OP(=O)(O)O)C1OP(=O)(O)O (stereo not shown) [5-PCP-InsP5]" experimental_result="0 μM/μM protein"
compound="O=C(NC1C(OP(=O)(O)O)C(OP(=O)(O)O)C(OP(=O)(O)O)C(OP(=O)(O)O)C1OP(=O)(O)O)C(F)(F)P(=O)(O)O (stereo not shown)" experimental_result="0 μM/μM protein"
compound="O=P(O)(O)OC1C(OP(=O)(O)O)C(OP(=O)(O)O)C(OP(=O)(O)O)C(OP(=O)(O)O)C1OP(=O)(O)O (stereo not shown) [neo-InsP6]" experimental_result="0 μM/μM protein"
compound="O=P(O)(O)OC1[C@@H](OP(=O)(O)O)[C@H](OP(=O)(O)O)C(OP(=O)(O)OP(=O)(O)O)[C@@H](OP(=O)(O)O)[C@H]1OP(=O)(O)O (stereo partly shown)" experimental_result="193 μM/μM protein"
compound="O=C(CP(=O)(O)O)NC1C(OP(=O)(O)O)C(OP(=O)(O)O)C(OP(=O)(O)O)C(OP(=O)(O)O)C1OP(=O)(O)O (stereo not shown)" experimental_result="25 μM/μM protein"
